Documented activation (fluorescence interference) across a set of compounds
# PROTOCOL_SUMMARY: beacon detection-step fluorescence artefacts – biochemical, fluorescent molecular beacon, single concentration, artefact control for DNMT1 inhibitor project, confirmation (AID 602387);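 also: DNMT1 catalytic domain with a HinP1I cleavage step and a FAM/dabcyl DNA beacon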
# PARTICULARS: DNMT1 molecular beacon spectral interference counterscreen, fluorescence 485/520; at 10 µM; active compounds read high
Screen size: about 2,300 compounds; about 30 (1%) were called active. Not all results are given here.

COMPOUND	UNIT_TEXT	activation (fluorescence interference)
CCOC(=O)c1c(NC(=S)NC(=O)/C=C/c2cccs2)sc(C)c1C	%	2.75
CCOC(=O)C(NC(=O)CC(C)C)(Nc1sc2c(c1C(N)=O)CCCC2)C(F)(F)F (stereo not given)	%	6.15
O=C(Cn1nnc(-c2ccccc2)n1)N/N=C/c1ccc(-c2ccc(Cl)cc2)o1	%	3.12
CC1(C(=O)NS(=O)(=O)c2ccccc2)CCN1C(=O)C/C=C/c1ccccc1 (stereo not given)	%	-0.14
CCCCNC(=O)CCn1c(=O)c2ccccc2n(Cc2cc(C)ccc2C)c1=O	%	1.75
CCc1ccc(NC(=O)CS(=O)CC(=O)NCCCc2ccccc2)cc1 (stereo not given)	%	2.85
COc1ccc(CC(=O)Nc2ccc(-c3nnc(-c4ccc(C)cc4)o3)cc2)cc1	%	-5.84
COc1ccc(C(=O)OCC(=O)Nc2cccc(C(C)=O)c2)cc1OC	%	8.78
O=C(CCNC(=O)c1ccccc1)NN=Cc1ccc(Br)o1	%	2.53
COc1cc(-c2nnc(NC(=O)CS(=O)(=O)c3ccc(Cl)cc3)o2)cc(OC)c1OC	%	5.03

---

Documented activation (fluorescence interference) across a set of molecules
# PROTOCOL_SUMMARY: beacon detection-step fluorescence artefacts – biochemical, fluorescent molecular beacon, single concentration, artefact control for DNMT1 inhibitor project, confirmation (AID 602387);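 also: DNMT1 catalytic domain with a HinP1I cleavage step and a FAM/dabcyl DNA beacon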
# PARTICULARS: DNMT1 molecular beacon spectral interference counterscreen, fluorescence 485/520; at 10 µM; active compounds read high
In all, about 2,300 compounds went through this assay and about 30 (1%) were called active. The list is a sample of the results.

MOLECULE	activation (fluorescence interference), %
C=Cc1ccc(C(=O)N2CCCC(CCC(=O)N3CCN(c4ccccn4)CC3)C2)cc1 (stereo not given)	-0.29
O=c1[nH]c(/C=C/c2cccc(Br)c2)nc2ccccc12	-5.42
Cc1ccc(Cc2cncc(O)c2)cc1S(=O)(=O)O	5.41
O=C(COC(=O)/C=C/c1cn(-c2ccccc2)nc1-c1cccnc1)Nc1ccc(Cl)cc1Cl	-2.13
CN(Cc1nc2ccc(F)cc2[nH]1)Cc1nc(CC2CC2)no1	5.14
NNc1cccc(C=Cc2ccccc2)cc1=O	-0.89
CCOc1ccc(CN2CCC(n3nccc3NC(=O)C3CC3)CC2)cc1CO	3.5
Cc1onc(-c2ccccc2)c1C(=O)Nc1ccccc1C#N	3.12
O=C(Nc1cccc(F)c1)c1cc(-c2ccco2)nc2ccccc12	3.89
CCOc1ccccc1/C=c1\sc2nc(-c3ccco3)nn2c1=O	3.15
CC(C)(C)NC(=O)CSC(=Nc1ccccc1F)NC#N	8.71
Nc1cc2c(cc1Br)-c1ccc(F)cc1C2=O	-1.05
CC(=O)Nc1ccc(SCC(=O)NC(=O)c2ccc(Cl)cc2)cc1	4.23
COc1ccc2sc(-c3ccc(S(C)(=O)=O)cc3)c(-c3ccc(C(N)=O)cc3)c2c1	4.53
NC1=CC(=O)C(=O)c2cccnc21	34.8
CCOC(=O)/C(C#N)=C/c1ccc(OCC(=O)Nc2ccccc2)c(OC)c1	6.65
CC(=O)Nc1ccccc1Sc1ccc2c3c(cccc13)C(=O)N(c1ccc(C)cc1)C2=O	2.58
COc1ccc(NC(=O)CN(C)C(=O)c2cc(C3CC3)nn2-c2ccccc2)cc1	0.09
COc1ccc(C(=O)/C=C/c2ccc(-c3ccccc3)cc2)cc1CSCC(=O)O	-0.97
O=C(COc1ccc(/C=N/NC(=O)c2ccc(O)cc2)cc1)Nc1ccc([N+](=O)[O-])cc1	-12.5
COc1ccc(Br)cc1/C=N/Nc1ccc(S(=O)(=O)Nc2ccccc2C(=O)O)cc1[N+](=O)[O-]	-9.44
O=C(CN1CCCSc2ccccc21)N1CCN(S(=O)(=O)c2cccc(F)c2)CC1	2.83
c1ccc2cc3c(NCCN4CCOCC4)ccnc3cc2c1	-0.48
O=C1CCCC(O)=C1C=NCCc1ccccc1	5.41
COc1ccc(CC(=O)Nc2ccc(-c3nnc(-c4ccccc4)o3)cc2)cc1	-2.31

---

Documented activation (fluorescence interference) across a set of molecules
# PROTOCOL_SUMMARY: beacon detection-step fluorescence artefacts – biochemical, fluorescent molecular beacon, single concentration, artefact control for DNMT1 inhibitor project, confirmation (AID 602387);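 also: DNMT1 catalytic domain with a HinP1I cleavage step and a FAM/dabcyl DNA beacon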
# PARTICULARS: DNMT1 molecular beacon spectral interference counterscreen, fluorescence 485/520; at 10 µM; active compounds read high
The whole screen tested about 2,300 compounds, of which about 30 (1%) were called active. The list is a sample of the results.

MOLECULE	activation (fluorescence interference) (%)
O=C(COC(=O)c1ccc(F)cc1F)Nc1ncccn1	3.67
C=CC[C@@H](CC(=O)N[C@H](CO)Cc1ccccc1)C(=O)N[C@@H](COC(=O)[C@@H](CC=C)Cc1ccc(F)cc1)Cc1c[nH]c2ccccc12	10.2
Cc1cc(O)c(C(=O)/C=C/c2c(F)c(F)c(F)c(F)c2F)c(=O)o1	6.03
O=C(c1cccs1)N1CCC(c2nc3ccccc3s2)CC1	4.65
Oc1c(C(c2ccco2)N2CCC3(CC2)OCCO3)sc2ncnn12 (configuration not stated)	3.04
Cc1ccc(N=C2NC(=O)/C(=C/C=C/c3ccco3)S2)cc1C	-1.63
COc1ccc(NC(=O)CCn2ccnc2)c(OC)c1	5.11
c1ccc2cc3[nH]c(CN4CCCCC4)nc3cc2c1	5.49
O=C(Oc1ccc(-c2nc(-c3ccccn3)no2)cc1)c1ccccc1	-1.62
Cc1ccccc1NC(=O)CN1C(=O)N/C(=C\c2cccn2-c2cccc(C(=O)O)c2)C1=O	-2.61
Cc1ccc2[nH]c(=O)c(-c3nc4c(C)cccn4c3NCc3ccco3)cc2c1	-3.31
Cc1ccc2cc(C)c(N3CCC(C)CC3)nc2c1	2.52
O=C(Nc1nc(-c2ccco2)c(-c2ccco2)s1)c1ccco1	6.11
COc1ccc(OC)c(NC(=O)c2cc(-c3cc(F)ccc3OCC3CCCO3)n[nH]2)c1 (configuration not stated)	7.7
Cc1ccccc1-n1cc(CNC(=O)CC2C(=O)NCCN2C/C=C/c2ccccc2)cn1 (configuration not stated)	1.73
O=C(COC(=O)c1ccccc1O)NCc1ccco1	6.37
COc1ccc2[nH]c(=O)c(-c3noc(-c4ccc(F)cc4)n3)cc2c1	-3.37
CCOc1cc(NC(=O)c2ccco2)c(OCC)cc1NC(=O)COc1ccccc1	-8.28
Cc1ccc(C(=O)NNC(=O)c2cc3cc4ccccc4nc3s2)cc1	4.21
Cc1ccc(-c2nnc(-c3ccc(NC(=O)c4cccs4)cc3)o2)cc1	-3.03
Cc1cc2nc(-c3ccco3)c(Cc3cccc(F)c3)n2c(C)c1Br	0.96
CC1CN(C(=O)c2ccccc2NS(=O)(=O)c2cccc([N+](=O)[O-])c2)CC(C)O1 (configuration not stated)	1.08

FYI, the data here is from PubChem BioAssay AID602387.
